Can you tell me Coupled exchange IC50 (2 h) for the items I'm about to list?
target desc: GDP-bound KRAS protein (aa 1-169), containing both G12C and C118A amino acid substitutions (Homo sapiens, UniProt P01116, C118A/G12C)
Sequence (P01116 1-169 isoform P01116-2 G12C/C118A): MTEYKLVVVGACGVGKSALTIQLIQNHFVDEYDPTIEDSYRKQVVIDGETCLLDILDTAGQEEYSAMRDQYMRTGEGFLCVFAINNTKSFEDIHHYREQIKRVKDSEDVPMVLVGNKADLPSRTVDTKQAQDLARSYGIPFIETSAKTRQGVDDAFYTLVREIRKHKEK
method description: Coupled nucleotide exchange assay (SOS-mediated, AlphaScreen)
Type: biochemical
measurement setup: 2 h compound pre-incubation

Query C=CC(=O)N1CCN(c2nc(=O)n(C(CC)CC)c3nc(-c4c(C)ccc5[nH]ncc45)c(Cl)cc23)[C@@H](C)C1 [Example 60-32] yields Coupled exchange IC50 (2 h) of 157 nM

Query C=CC(=O)N1CCN(c2nc(=O)n(-c3c(CC)cccc3CC)c3nc(-c4ccccc4C4CC4)c(Cl)cc23)[C@@H](C)C1 [Example 54-22] yields Coupled exchange IC50 (2 h) of 97 nM

Query C=CC(=O)N1CCN(c2nc(=O)n(-c3c(CC)cccc3CC)c3nc(-c4ccccc4F)c(Cl)cc23)[C@@H](C)C1 [Example 54-60] yields Coupled exchange IC50 (2 h) of 93 nM

Query C=CC(=O)N1CCN(c2nc(=O)n(C(C(C)C)C(C)C)c3nc(-c4ccccc4F)c(Cl)cc23)CC1 [Example 60-31] yields Coupled exchange IC50 (2 h) of 115 nM

Query C=CC(=O)N1CCN(c2nc(=O)n(CC(C)(C)C(F)(F)F)c3nc(-c4ccccc4F)c(Cl)cc23)[C@@H](C)C1 [Example 60-33] yields Coupled exchange IC50 (2 h) of 139 nM

Query C=CC(=O)N1CCN(c2nc(=O)n(-c3c(CC)cccc3CC)c3nc(-c4ccccc4)c(Cl)cc23)[C@@H](C)C1 [Example 54-62] yields Coupled exchange IC50 (2 h) of 172 nM

###

target desc: GDP-bound KRAS protein (aa 1-169), containing both G12C and C118A amino acid substitutions (Homo sapiens, UniProt P01116, C118A/G12C)
method description: Coupled nucleotide exchange assay (SOS-mediated, AlphaScreen)
Type: biochemical
measurement setup: 5 min compound pre-incubation
metric: Coupled exchange IC50 (5 min)

Query C=CC(=O)N1CCN(c2nc(=O)n(-c3c(C4CC4)ccnc3C)c3nc(-c4c(O)cccc4F)c(F)cc23)[C@@H](C)C1 (single isomer, unassigned) [Example 58-19-1] yields Coupled exchange IC50 (5 min) of 4.06 | nda μM

Query C=CC(=O)N1CCN(c2nc(=O)n(-c3c(C)ccnc3C(C)C)c3nc(-c4ccccc4F)c(Cl)cc23)C(CF)C1 (single isomer, unassigned) yields Coupled exchange IC50 (5 min) of 0.349 | nda μM

Query C=CC(=O)N1CCN(c2nc(=O)n(-c3c(C)ccnc3C(C)C)c3nc(-c4cc(O)ccc4F)c(F)cc23)[C@@H](C)C1 [Example 58-5] yields Coupled exchange IC50 (5 min) of 0.484 | nda μM

Query `C=CC(=O)N1CCN(c2nc(=O)n(-c3ccccc3C(C)C)c3nc(-c4c(C)cnn4C)c(Cl)cc23)[C@@H](C)C1` yields Coupled exchange IC50 (5 min) of 2.87 | nda μM

Query C=CC(=O)N1CCN(c2nc(=O)n(-c3ccccc3C(C)C)c3nc(-c4ccccc4F)c(F)cc23)[C@@H](C)C1 (single isomer, unassigned) [Example 57-7-1] yields Coupled exchange IC50 (5 min) of 8.89 | nda μM

Query C=CC(=O)N1CCN(c2nc(=O)n(-c3ccccc3C(C)C)c3nc(-c4ccc(F)cc4F)c(Cl)cc23)[C@@H](C)C1 (single isomer, unassigned) [Example 54-85-1] yields Coupled exchange IC50 (5 min) of 3.4 | nda μM

###

target desc: GDP-bound KRAS protein (aa 1-169), containing both G12C and C118A amino acid substitutions (Homo sapiens, UniProt P01116, C118A/G12C)
method description: Coupled nucleotide exchange assay (SOS-mediated, AlphaScreen)
Format: biochemical
measurement setup: 5 min compound pre-incubation
metric: Coupled exchange IC50 (5 min)

Query C=CC(=O)N1CCN(c2nc(=O)n(-c3c(N)cccc3C(C)C)c3nc(-c4ccccc4F)c(Cl)cc23)[C@@H](C)C1 (single isomer, unassigned) [Example 155-1] yields Coupled exchange IC50 (5 min) of 0.038 | nda μM

Query C=CC(=O)N1CCN(c2nc(=O)n(-c3c(C)cccc3C3CC3)c3nc(-c4c(O)cccc4F)c(F)cc23)[C@@H](C)C1 (single isomer, unassigned) [Example 58-13-1] yields Coupled exchange IC50 (5 min) of 1.56 | nda μM

Query C=CC(=O)N1CCN(c2nc(=O)n(-c3ccccc3C3CCC3)c3nc(-c4c(O)cccc4F)c(Cl)cc23)[C@@H](C)C1 (single isomer, unassigned) [Example 54-10-2] yields Coupled exchange IC50 (5 min) of 0.071 | nda μM

Query C=CC(=O)N1CCN(c2nc(=O)n(CC3(C)CC3)c3nc(-c4c(O)cccc4F)c(Cl)cc23)[C@@H](C)C1 [Example 54-6] yields Coupled exchange IC50 (5 min) of 0.306 | nda μM

Query C=CC(=O)N1CCN(c2nc(=O)n(-c3c(Cl)cccc3Cl)c3nc(-c4ccccc4F)c(Cl)cc23)[C@@H](C)C1 [Example 54-30] yields Coupled exchange IC50 (5 min) of 0.824 | nda μM

Query C=CC(=O)N1CCN(c2nc(=O)n(-c3c(C)ccnc3C(C)C)c3nc(-c4c(F)ccc5[nH]ncc45)c(Cl)cc23)[C@@H](C)C1 (single isomer, unassigned) [Example 82-2] yields Coupled exchange IC50 (5 min) of 0.096 | nda μM

Query C=CC(=O)N1CCN(c2nc(=O)n(-c3ccccc3S(C)(=O)=O)c3nc(-c4c(O)cccc4F)c(Cl)cc23)[C@@H](C)C1 [Example 54-56-1] yields Coupled exchange IC50 (5 min) of 2.49 | nda μM

Query C=CC(=O)N1CCN(c2nc(=O)n(-c3cn[nH]c3C(C)C)c3nc(-c4ccccc4F)c(Cl)cc23)[C@@H](C)C1 [Example 55-42] yields Coupled exchange IC50 (5 min) of 0.351 | nda μM

Query C=CC(=O)N1CCN(c2nc(=O)n(-c3ccccc3C(C)C)c3nc(-c4cc(N)ccc4Cl)c(Cl)cc23)[C@@H](C)C1 (single isomer, unassigned) [Example 56-7-2] yields Coupled exchange IC50 (5 min) of 0.676 | nda μM

Query C=CC(=O)N1CCN(c2nc(=O)n(-c3c(C)ccnc3N(C)C)c3nc(-c4ccccc4F)c(Cl)cc23)[C@@H](C)C1 (single isomer, unassigned) [Example 55-7-1] yields Coupled exchange IC50 (5 min) of 0.863 | nda μM

Query C=CC(=O)N1CCN(c2nc(=O)n(-c3c(C)ccnc3C(C)C)c3nc(-c4cc(N)ccc4Cl)c(F)cc23)[C@@H](C)C1 (single isomer, unassigned) [Example 58-8-1] yields Coupled exchange IC50 (5 min) of 0.213 | nda μM

Query C=CC(=O)N1CCN(c2nnc(-c3c(C(C)C)cccc3C(C)C)c3nc(-c4ccccc4F)c(Cl)cc23)[C@@H](C)C1 [Example 138] yields Coupled exchange IC50 (5 min) of 1.75 | nda μM

Query C=CC(=O)N1CCN(c2nc(=O)n(-c3ccccc3C(C)C)c3cc(-c4ccccc4F)c(Cl)nc23)[C@@H](C)C1 [Example 110] yields Coupled exchange IC50 (5 min) of 0.166 | nda μM

Query C=CC(=O)N1CCN(c2nc(=O)n(-c3c(C#N)cccc3C(C)C)c3nc(-c4ccccc4F)c(Cl)cc23)[C@@H](C)C1 (single isomer, unassigned) [Example 60-20-2] yields Coupled exchange IC50 (5 min) of 0.024 | nda μM

Query C=CC(=O)N1CCN(c2nc(=O)n(-c3ncsc3C(C)C)c3nc(-c4c(O)cccc4F)c(Cl)cc23)[C@@H](C)C1 [Example 55-17] yields Coupled exchange IC50 (5 min) of 0.18 | nda μM

Query C=CC(=O)N1CCN(c2nc(=O)n(-c3c(C)cc[n+]([O-])c3C(C)C)c3nc(-c4ccccc4F)c(Cl)cc23)C(C)C1 (atropisomer, axis not shown; (M)) [Example 151] yields Coupled exchange IC50 (5 min) of 0.065 | nda μM

Query C=CC(=O)N1CCN(c2nc(=O)n(-c3c(C)cccc3C(C)C)c3nc(-c4cc(Cl)ccc4O)c(F)cc23)[C@@H](C)C1 (single isomer, unassigned) [Example 113] yields Coupled exchange IC50 (5 min) of 1.02 | nda μM

Query C=CC(=O)N1CCN(c2nc(=O)n(-c3ccccc3C(C)C)c3nc(-c4ccco4)c(Cl)cc23)[C@@H](C)C1 [Example 54-47] yields Coupled exchange IC50 (5 min) of 10.7 | nda μM

Query C=CC(=O)N1CCN(c2nc(=O)n(-c3c(C4CC4)ccnc3C)c3nc(-c4ccccc4F)c(F)cc23)[C@@H](C)C1 [Example 58-20] yields Coupled exchange IC50 (5 min) of 1.96 | nda μM

Query C=CC(=O)N1CCN(c2nc(=O)n(-c3ccccc3C(C)C)c3nc(-c4ccc(F)cc4O)c(Cl)cc23)[C@@H](C)C1 (single isomer, unassigned) [Example 54-77-2] yields Coupled exchange IC50 (5 min) of 0.136 | nda μM

Query C=CC(=O)N1CCN(c2nc(=O)n(-c3c(C)ccnc3C(C)C)c3nc(-c4c(C)cccc4O)c(F)cc23)[C@@H](C)C1 (atropisomer, axis not shown; (M)) [Example 72-4] yields Coupled exchange IC50 (5 min) of 0.08 | nda μM

Query C=CC(=O)N1CCN(c2nc(=O)n(-c3c(OC)cccc3C(C)C)c3nc(-c4c(O)cccc4F)c(Cl)cc23)[C@@H](C)C1 (single isomer, unassigned) [Example 54-73-1] yields Coupled exchange IC50 (5 min) of 0.025 | nda μM

Data origin: patent US11090304B2
